These data points were gathered from patent US9034873B2.

test system: Fibroblast (skin); test: IC50 of the referent molecules on Fibroblast (skin) cells; assay type: cell-based; conditions: Fibroblast, 24 h; read-out: IC50 μM Fibroblast (skin) 24 h
Please go through the items and note down their IC50.

### Prompt Given CC(=O)O[C@H]1C(=O)[C@@]2(C)[C@H]([C@H](OC(=O)c3ccccc3)[C@]3(O)C[C@H](OC(=O)[C@H](O)[C@@H](NC(=O)c4ccccc4)c4ccccc4)C(C)=C1C3(C)C)[C@]1(OC(C)=O)CO[C@@H]1C[C@@H]2O , state its recorded IC50.
### Response > 25 µM

### Prompt For COc1cccc2c1C(=O)c1c(O)c3c(c(O)c1C2=O)C[C@@](O)(C(=O)CO)C[C@@H]3O[C@H]1C[C@H](N)[C@H](O)[C@H](C)O1 , what is its reported IC50?
### Response 2 µM

### Prompt Field request: IC50 | item: CC[C@H](CO)Nc1nc(NCc2ccccc2)c2ncn(C(C)C)c2n1
### Response > 25 µM
